tested on: dopamine D-1 receptor; settings: dopamine = 100; goldfish retina or rat striatum
Property Measured: Intrinsic Activity (adenylate cyclase assay)
Number only, please.

Consider the worked cases shown below.
>  <Molecule>
Oc1ccc2c(c1O)CC(c1ccccc1)C1=C2CNCC1 (centres unmarked) [Example 239]

>  <Measured>
103

$$$$
>  <Molecule>
NC[C@H]1O[C@@H](c2ccc(C(F)(F)F)cc2)Cc2c1ccc(O)c2O (relative stereo) [Example 98]

>  <Measured>
108

$$$$
>  <Molecule>
NCC1OC2(CCCCC2)Cc2c1ccc(O)c2O (centres unmarked) [Example 52]

>  <Measured>
65

$$$$
>  <Molecule>
CC1([C@@H]2Cc3c(ccc(O)c3O)[C@H](CN)O2)CCCCC1 (relative stereo) [Example 222]

>  <Measured>
87

$$$$
>  <Molecule>
CCCCCC[C@@H]1Cc2c(ccc(O)c2O)[C@H](CN)O1 (relative stereo) [Example 68]

>  <Measured>
90

$$$$

Enquiry: Can you look up the measured Intrinsic Activity (adenylate cyclase assay) of CNC[C@@H]1O[C@H](C23CC4CC(CC(C4)C2)C3)Cc2c1cc(F)c(O)c2O [Example 145] for me?
Return: 49

Enquiry: Fill in: Intrinsic Activity (adenylate cyclase assay) of C=CCC[C@@H]1Cc2c(ccc(O)c2O)[C@H](CN)O1 (relative stereo) [Example 73] is ___
Return: 138

Enquiry: Intrinsic Activity (adenylate cyclase assay) lookup needed for Oc1ccc2c(c1O)CC(C1CCCCC1)C1=C2CNCC1 (centres unmarked) [Example 202] , thanks.
Return: 84

Enquiry: Return reported Intrinsic Activity (adenylate cyclase assay); argument: NC[C@H]1O[C@@H](CNC(=O)c2cccnc2)Cc2c1ccc(O)c2O (relative stereo) [Example 170]
Return: 151

Enquiry: Need Intrinsic Activity (adenylate cyclase assay), item CC(C)C(=O)NC[C@H]1Cc2c(ccc(O)c2O)[C@@H](CN)O1 (relative stereo) [Example 171]
Return: 124

Enquiry: Please give the measured Intrinsic Activity (adenylate cyclase assay) for this molecule: CC(C)=CCCC(C)[C@@H]1Cc2c(ccc(O)c2O)[C@H](CN)O1 (some centres unmarked) [Example 74]
Return: 105

Enquiry: Bench note: what Intrinsic Activity (adenylate cyclase assay) did Oc1ccc2c(c1O)C[C@@H](c1ccccc1)O[C@H]2[C@H]1CCCN1 [Example 123] show?
Return: 61

Enquiry: For the molecule CCN1CCC2=C(C1)c1ccc(O)c(O)c1CC21CCCCCC1 [Example 251] , what Intrinsic Activity (adenylate cyclase assay) is on record?
Return: 41

Enquiry: For NC[C@H]1O[C@@H](COc2ccccc2)Cc2c1ccc(O)c2O (relative stereo) [Example 55] , what is its reported Intrinsic Activity (adenylate cyclase assay)?
Return: 51

Enquiry: // Intrinsic Activity (adenylate cyclase assay) lookup, key: Br.CN1CCC2=C(C1)c1ccc(O)c(O)c1CC2c1ccccc1 (centres unmarked) [Example 210]
Return: 98

Enquiry: Which Intrinsic Activity (adenylate cyclase assay) reading was recorded for the molecule COC(=O)Oc1ccc2c(c1OC(=O)OC)CC(c1ccccc1)C=C2CN (centres unmarked) [Example 23] ?
Return: 65

Enquiry: Requested field: Intrinsic Activity (adenylate cyclase assay). Item: CNC[C@H]1O[C@@H](c2ccc(F)cc2)Cc2c1ccc(O)c2O (relative stereo) [Example 136]
Return: 133

---

molecular target: dopamine D-1 receptor (Rattus norvegicus); assay: biochemical; conditions: D-1 Ki, rat caudate, [125I]SCH-23982
Sequence (P18901 whole entry): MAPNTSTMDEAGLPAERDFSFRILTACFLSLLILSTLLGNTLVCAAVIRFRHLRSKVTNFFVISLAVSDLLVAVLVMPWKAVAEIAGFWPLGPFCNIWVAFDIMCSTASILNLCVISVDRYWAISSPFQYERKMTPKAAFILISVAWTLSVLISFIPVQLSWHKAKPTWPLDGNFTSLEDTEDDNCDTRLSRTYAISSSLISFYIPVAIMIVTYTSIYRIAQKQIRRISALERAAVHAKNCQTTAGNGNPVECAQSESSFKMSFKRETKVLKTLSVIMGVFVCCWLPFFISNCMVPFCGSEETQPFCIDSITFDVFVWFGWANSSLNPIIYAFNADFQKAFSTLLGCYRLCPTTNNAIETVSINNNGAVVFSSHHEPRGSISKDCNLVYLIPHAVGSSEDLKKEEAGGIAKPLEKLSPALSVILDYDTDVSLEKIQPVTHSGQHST
pKi: −log10 of the molar value.
Decision: pKi compared against 6; not below it gives Condition met, below it gives Condition not met.

Enquiry: Item NCC1=CC(c2ccc3ccccc3c2)Cc2c1ccc(O)c2O (stereo not drawn) with pKi of 6 or above?
Return: Condition not met

Enquiry: Is reported pKi greater than or equal to 6 here: Br.CN1CCC2=C(C1)c1ccc(O)c(O)c1CC2c1ccccc1 (stereo not drawn) [Example 210, Hydrobromide]
Return: Condition met

Enquiry: Check if pKi >= 6 (inclusive). Item: CN1CCC2=C(C1)c1ccc(O)c(O)c1CC2CC1CCCC1 (stereo not drawn)
Return: Condition met

Enquiry: Please check the record NC[C@@H]1O[C@H](CCc2ccccc2)Cc2c1ccc(O)c2O (relative stereo) and state if its pKi is at or above 6.
Return: Condition met

Enquiry: Is pKi for NCC1=CC2(CCCCC2)Cc2c1ccc(O)c2O at or above 6?
Return: Condition not met

Enquiry: Does the compound Oc1ccc2c(c1O)C[C@@H](c1ccccc1)O[C@H]2[C@H]1CCCN1 have recorded pKi that is 6 or more?
Return: Condition not met

Enquiry: In plain terms: is recorded pKi at least 6 for NCC1OC2(CCCCCCC2)Cc2c1ccc(O)c2O (stereo not drawn) ?
Return: Condition met

Enquiry: # bool: pKi of Br.NCC1=CC(C2CCCCC2)Cc2c1ccc(O)c2O (stereo not drawn) [Example 36, Hydrobromide] >= 6
Return: Condition met

---

molecular target: dopamine D-2 receptor (Rattus norvegicus); assay: biochemical; assay type: binding; conditions: rat caudate, [125I]-p-aminophenylethyl spiroperidol; read-out: D-2 Ki
The following compounds are listed with their measured pKi values.
Formally, pKi is defined as -log10 of the concentration c, with c in mol/L.

Consider the following illustrative entries.
>  <Compound>
CCCCCC[C@@H]1Cc2c(ccc(O)c2O)[C@H](CN)O1 (relative stereo) [Example 68]

>  <pKi>
5.26

$$$$
>  <Compound>
CCCCCCCC[C@@H]1Cc2c(ccc(O)c2O)[C@H](CN)O1 (relative stereo) [Example 64]

>  <pKi>
6.27

$$$$

Enquiry: Requested field: pKi. Item: CC(C)CC1Cc2c(ccc(O)c2O)C(CN)O1 (stereo not shown) [Example 216]
Return: 5.43

---

tested on: dopamine D-1 receptor; conditions: dopamine = 100; goldfish retina or rat striatum
Recorded Intrinsic Activity (adenylate cyclase assay), one value per entry.
// return just the number, without any unit appended

Consider the reported Intrinsic Activity (adenylate cyclase assay) for these compounds:
>  <Compound>
CC(=O)NCC[C@H]1Cc2c(ccc(O)c2O)[C@@H](CN)O1 (relative stereo)

>  <Measured>
116

$$$$
>  <Compound>
NC[C@@H]1O[C@H](Cc2ccccc2)Cc2c1ccc(O)c2O (relative stereo)

>  <Measured>
93

$$$$
>  <Compound>
NC[C@@H]1O[C@H](COCc2ccccc2)Cc2c1ccc(O)c2O (relative stereo)

>  <Measured>
60

$$$$
>  <Compound>
CCCCCC(NC(=O)CCl)[C@@H]1Cc2c(ccc(O)c2O)[C@H](CN)O1 (relative stereo)

>  <Measured>
105

$$$$
>  <Compound>
CNCC1OC2(CCOCC2)Cc2c1ccc(O)c2O (centres unmarked)

>  <Measured>
94

$$$$

Enquiry: Entry CNC[C@@H]1O[C@H](CC23CC4CC(CC(C4)C2)C3)Cc2c1ccc(O)c2O (relative stereo) has what Intrinsic Activity (adenylate cyclase assay)?
Return: 129

Enquiry: Param item = CNC[C@@H]1O[C@H](C2(c3ccccc3)CCCCC2)Cc2c1ccc(O)c2O (relative stereo) ; retrieve measured Intrinsic Activity (adenylate cyclase assay).
Return: 76

Enquiry: Item NCC1=CC2(CCCCCCCCC2)Cc2c1ccc(O)c2O has what recorded Intrinsic Activity (adenylate cyclase assay)?
Return: 53

---

biological target: dopamine D-2 receptor (Rattus norvegicus, UniProt P61169); experiment: biochemical; format: binding; settings: rat caudate, [125I]-p-aminophenylethyl spiroperidol; read-out: D-2 Ki
Sequence (P61169 whole entry): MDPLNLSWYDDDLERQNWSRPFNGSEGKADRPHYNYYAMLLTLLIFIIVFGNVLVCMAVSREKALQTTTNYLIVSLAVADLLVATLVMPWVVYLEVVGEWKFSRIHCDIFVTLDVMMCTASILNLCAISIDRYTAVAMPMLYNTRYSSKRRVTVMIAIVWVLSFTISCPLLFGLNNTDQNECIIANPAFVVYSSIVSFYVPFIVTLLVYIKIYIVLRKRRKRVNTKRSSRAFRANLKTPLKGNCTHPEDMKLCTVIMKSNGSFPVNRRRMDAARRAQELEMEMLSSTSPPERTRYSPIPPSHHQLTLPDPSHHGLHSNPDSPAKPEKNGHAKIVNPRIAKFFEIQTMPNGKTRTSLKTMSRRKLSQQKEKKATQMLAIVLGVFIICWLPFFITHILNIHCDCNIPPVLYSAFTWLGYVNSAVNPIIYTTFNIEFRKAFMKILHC
Where a name gives a salt, the structure may show the parent alone.
Property Measured: pKi
The scale used: pKi is minus the common logarithm of the concentration in molar units.

For orientation, consider the following solved cases.
>  <Compound>
CNC[C@@H]1O[C@H](c2ccccc2)Cc2c1ccc(O)c2O

>  <Property Measured>
pKi

>  <Measured>
5.66

$$$$
>  <Compound>
NC[C@H]1O[C@@H](c2ccccc2)Cc2c1ccc(O)c2O (relative stereo)

>  <Property Measured>
pKi

>  <Measured>
6.00

$$$$
>  <Compound>
CN1CCC2=C(C1)c1ccc(O)c(O)c1CC2C(C)(C)C (centres unmarked)

>  <Property Measured>
pKi

>  <Measured>
5.92

$$$$
>  <Compound>
CC(C)(C)C(=O)NC[C@H]1Cc2c(ccc(O)c2O)[C@@H](CN)O1 (relative stereo)

>  <Property Measured>
pKi

>  <Measured>
5.62

$$$$
>  <Compound>
CNC[C@H]1O[C@@H](c2ccc(F)cc2)Cc2c1ccc(O)c2O (relative stereo)

>  <Property Measured>
pKi

>  <Measured>
5.60

$$$$

Enquiry: # get_value(readout='pKi', item= CNC[C@H]1O[C@@H](C2CCCCC2)Cc2c1ccc(O)c2O (relative stereo) [Example 111, Hydrochloride] )
Return: 6.14

---

molecular target: dopamine D-1 receptor (Rattus norvegicus); assay: biochemical; conditions: D-1 Ki, rat caudate, [125I]SCH-23982
Where a name gives a salt, the structure may show the parent alone.
Property Measured: log10 Ki (log10 of the value in nM)
Quick note: numbers are log10 of Ki, with nM as the unit.

>  <Molecule>
Oc1ccc2c(c1O)C[C@H](C1CCCCC1)O[C@@H]2CN1CCCC1 (relative stereo)

>  <Measured>
4.08

$$$$
>  <Molecule>
NC[C@@H]1O[C@H](CC2CCCC2)Cc2c1ccc(O)c2O (relative stereo)

>  <Measured>
1.69

$$$$
>  <Molecule>
NCC1OC2(CCCCCC2)Cc2c1ccc(O)c2O (stereo not drawn)

>  <Measured>
2.67

$$$$
>  <Molecule>
CC(=O)NCC[C@H]1Cc2c(ccc(O)c2O)[C@@H](CN)O1 (relative stereo)

>  <Measured>
3.04

$$$$
>  <Molecule>
CN1CCC2=C(C1)c1ccc(O)c(O)c1CC21CCCC1

>  <Measured>
2.76

$$$$
>  <Molecule>
NC[C@H]1O[C@@H](CN2CCOCC2)Cc2c1ccc(O)c2O (relative stereo)

>  <Measured>
3.11

$$$$
>  <Molecule>
C=CCC[C@H]1Cc2c(ccc(O)c2O)[C@@H](CNC)O1 (relative stereo)

>  <Measured>
1.93

$$$$
>  <Molecule>
Cc1cc2c(c(O)c1O)C[C@@H](C1CCCCC1)O[C@H]2CN (relative stereo) [Example 177, Hydrochloride]

>  <Measured>
2.11

$$$$
>  <Molecule>
CN(C)C[C@@H]1O[C@H](C23CC4CC(CC(C4)C2)C3)Cc2c1ccc(O)c2O

>  <Measured>
1.81

$$$$
>  <Molecule>
CNCC1OC2(CCCCCC2)Cc2c1ccc(O)c2O (stereo not drawn)

>  <Measured>
2.08

$$$$

Enquiry: Tell me the measured log10 Ki of NCC1OC(CC2CCCC2)Cc2c1ccc(O)c2O (stereo not drawn) , please.
Return: 1.30

Enquiry: # input molecule: Oc1ccc2c(c1O)C[C@H](C1CCCCC1)O[C@@H]2CNC1CC1 (relative stereo) ; wanted: its log10 Ki
Return: 2.62

Enquiry: # query: log10 Ki of entry NC[C@@H]1S[C@H](c2ccccc2)Cc2c1ccc(O)c2O (relative stereo) [Example 186, Hydrochloride]
Return: 3.28

Enquiry: log10 Ki lookup needed for NCC1=CC2(CCCCCCCC2)Cc2c1ccc(O)c2O , thanks.
Return: 3.58

Enquiry: So what does the record say about log10 Ki for CN(C)C[C@@H]1O[C@H](C2(c3ccccc3)CCCCC2)Cc2c1ccc(O)c2O (relative stereo) ?
Return: 2.41

Enquiry: log10 Ki lookup needed for C=CCNC[C@H]1O[C@@H](CCCC)Cc2c1ccc(O)c2O (relative stereo) , thanks.
Return: 3.43

Enquiry: # log10 Ki lookup, item CCCC[C@@H]1Cc2c(ccc(O)c2O)[C@H](CN)O1 (relative stereo)
Return: 2.86

Enquiry: Need log10 Ki, item NC[C@@H]1O[C@H](Cc2ccccc2)Cc2c1ccc(O)c2O (relative stereo)
Return: 2.72

Enquiry: Any idea what its log10 Ki is? The molecule is CC(C)C[C@@H]1Cc2c(ccc(O)c2O)[C@H](CN)O1 (relative stereo)
Return: 1.32

Enquiry: Can you share its log10 Ki? I mean this molecule: NC[C@@H]1O[C@H](CN2Cc3ccccc3C2=O)Cc2c1ccc(O)c2O (relative stereo)
Return: 4.04

Enquiry: log10 Ki for CN(C)CC1OC(CC(C)(C)C)Cc2c1ccc(O)c2O (stereo not drawn) ?
Return: 2.61

Enquiry: Name the reported log10 Ki value associated with the molecule NC[C@@H]1O[C@H](c2ccccc2)Cc2c1cc(Br)c(O)c2O (relative stereo)
Return: 2.32

Enquiry: log10 Ki lookup needed for NCC1CC2(CCCCCCCC2)Cc2c1ccc(O)c2O (stereo not drawn) , thanks.
Return: 3.64

Enquiry: # lookup: log10 Ki of NCC1=CC(c2cccc3ccccc23)Cc2c1ccc(O)c2O (stereo not drawn)
Return: 2.85

Enquiry: Quick one: log10 Ki of CNC[C@H]1C[C@@H](c2ccccc2)Cc2c1ccc(O)c2O (relative stereo) ?
Return: 1.40

Enquiry: Item CCOC(=O)CC(=O)NC[C@@H]1Cc2c(ccc(O)c2O)[C@H](CN)O1 (relative stereo) has what recorded log10 Ki?
Return: 3.18

Enquiry: Which log10 Ki is reported for this molecule? CN(C)C[C@@H]1O[C@H](C2(C)CCCCC2)Cc2c1ccc(O)c2O (relative stereo)
Return: 1.41
